- System: U2OS
- procedure_text: Multiplex assay against U2OS
- Assay type: toxicity, cell-based
- details: human, 24 h, 1 µM, compound concentration 1 uM, replicate 1
Assign class by Population Pyknosed Nuclei (%): not lower than 9% means 1.0; lower than 9% means 0.0.

molecule | class_label
N[C@@]1(C(=O)O)CO[C@H]2[C@H](C(=O)O)[C@H]21 [LY-379268] | 0.0
CN(C)c1ccnc2sc3c(=O)n(N4CCCCCC4)cnc3c12 | 1.0
O=C(NCC(=O)N1CC[C@H](N[C@H]2CC[C@@](O)(c3ccc(-c4ncccn4)cn3)CC2)C1)c1cccc(C(F)(F)F)c1 [PF-4136309] | 0.0
CCCn1c(=O)c2[nH]c(C3CCCC3)nc2n(CCC)c1=O | 0.0
COc1c(C)cc(NC(=O)c2nn(Cc3ccc(F)cc3)c3c2CN(C(=O)c2ccc[nH]2)C[C@]3(C)C(N)=O)cc1C | 1.0
CC(=O)NCCc1c(Cc2ccccc2)[nH]c2ccccc12 [LUZINDOLE] | 1.0
